The values you see were collected from paper PMC9795544.

# EXPERIMENTAL_SYSTEM: OATP2B1 (Homo sapiens)
# Construct: expressed in transfected cells; host or cells: A431 cells
# Sequence (O94956 1-709): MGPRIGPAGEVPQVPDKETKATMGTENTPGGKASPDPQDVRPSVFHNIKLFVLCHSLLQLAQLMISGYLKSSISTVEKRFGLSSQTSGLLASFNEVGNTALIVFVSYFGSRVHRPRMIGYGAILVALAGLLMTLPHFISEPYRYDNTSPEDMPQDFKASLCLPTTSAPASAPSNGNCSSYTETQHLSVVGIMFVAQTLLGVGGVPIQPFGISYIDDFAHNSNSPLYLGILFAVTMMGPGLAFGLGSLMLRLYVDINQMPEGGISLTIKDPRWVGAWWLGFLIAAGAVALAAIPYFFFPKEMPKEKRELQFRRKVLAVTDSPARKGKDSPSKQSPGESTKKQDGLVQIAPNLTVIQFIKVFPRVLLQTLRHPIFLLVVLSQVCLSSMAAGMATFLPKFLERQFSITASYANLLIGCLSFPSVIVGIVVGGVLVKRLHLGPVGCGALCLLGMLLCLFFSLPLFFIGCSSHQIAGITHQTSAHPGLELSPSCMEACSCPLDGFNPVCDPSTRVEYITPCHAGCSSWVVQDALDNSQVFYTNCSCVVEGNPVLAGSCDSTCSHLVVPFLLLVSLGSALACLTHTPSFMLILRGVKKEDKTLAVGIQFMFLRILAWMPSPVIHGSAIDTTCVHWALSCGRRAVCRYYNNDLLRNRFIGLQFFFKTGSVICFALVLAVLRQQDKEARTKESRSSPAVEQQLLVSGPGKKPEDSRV
# EXPERIMENTAL_DETAILS: Pyranine transport inhibition in A431 cells overexpressing OATP2B1
# Format: cell-based
# ASSAY_CONDITIONS: full dose-response curve, eight concentrations, Hill1 fit; read-out: IC50 (μM) OATP2B1
Please respond with reported IC50 for every item in the list.
Numbers only, in µM.

In the examples that follow, each entry is paired with its recorded IC50.
{"COMPOUND": "COC(=O)c1c(NC(=O)CN2C(=O)NC3(CCc4ccccc4C3)C2=O)sc2c1CCCCC2 (centres unmarked)", "IC50 [µM]": 0.39}
{"COMPOUND": "Cn1c(=O)[nH]c(=O)c2c1nc(N/N=C1/C(=O)Nc3ccccc31)n2CCCc1ccccc1", "IC50 [µM]": 1.32}
{"COMPOUND": "O=C(O)c1cc(/C=C/c2c(-c3ccccc3)nc3ccccn23)nc2ccccc12", "IC50 [µM]": 0.04}

Now examine the next entry.
Report measured IC50; entry is O=C(NCc1cn(Cc2ccccc2)nc1-c1ccccc1)c1cc(F)cc(F)c1
1.48
